Measured values drawn from PubChem BioAssay (NCI) for this set.

Test system: NCI-H460 lung
Test: NCI-60 one-dose screen, 48 h
Details: 10 µM unless noted
The panel holds about 83,000 compounds, 20% with a hit somewhere; the sample as a whole holds those more often. Calls of active or inactive are those of the source. The calls were made as follows: active = growth percent below 10; inactive = the rest.
Response enum: active, inactive

1) O=c1[nH]c(-c2cccc(F)c2)cc2cc(F)ccc12 ... inactive

**Query** Please share the test call associated with N#CCNc1ccc(C(=O)O)cc1 .
**Result** inactive

**Query** Status in this test for COc1cc(/C=C/C(=O)/C=C/c2cc3ccc(Cl)cc3[nH]c2=O)ccc1O ?
**Result** inactive

**Query** Kindly provide the recorded test outcome for the following molecule: Sc1cccc2cccnc12
**Result** active
